tested on: Escherichia coli; experiment: Antimicrobial activity against Escherichia coli ATCC 25922 incubated for 18 hrs by serial microdilution method; type: functional; settings: ATCC 25922, 18 h
Each entry below carries its reported MIC.

| molecule.smiles | MIC |
| --- | --- |
| CO[C@H]1/C=C/O[C@@]2(C)Oc3c(C)c(O)c4c(O)c(c(/C=N/NC5=NCCN5)c(O)c4c3C2=O)NC(=O)/C(C)=C\C=C\[C@H](C)[C@H](O)[C@@H](C)[C@@H](O)[C@@H](C)[C@H](OC(C)=O)[C@@H]1C | > 8 µg/mL |
| CO[C@H]1/C=C/O[C@@]2(C)Oc3c(C)c(O)c4c(O)c(c(CN5CCN(c6ncccn6)CC5)c(O)c4c3C2=O)NC(=O)/C(C)=C\C=C\[C@H](C)[C@H](O)[C@@H](C)[C@@H](O)[C@@H](C)[C@H](OC(C)=O)[C@@H]1C | > 8 µg/mL |
| CO[C@H]1/C=C/O[C@@]2(C)Oc3c(C)c(O)c4c(O)c(c(CN5CCN(Cc6c(C)cc(C)cc6C)CC5)c(O)c4c3C2=O)NC(=O)/C(C)=C\C=C\[C@H](C)[C@H](O)[C@@H](C)[C@@H](O)[C@@H](C)[C@H](OC(C)=O)[C@@H]1C | > 8 µg/mL |
| CO[C@H]1/C=C/O[C@@]2(C)Oc3c(C)c(O)c4c(O)c(c(CN5CCC(N(C)C)CC5)c(O)c4c3C2=O)NC(=O)/C(C)=C\C=C\[C@H](C)[C@H](O)[C@@H](C)[C@@H](O)[C@@H](C)[C@H](OC(C)=O)[C@@H]1C | > 8 µg/mL |

---

Recorded measurements of solubility, one per entry
assay: Solubility of the compound in water at pH 7 by UV-vis spectrophotometric analysis; assay type: physicochemical

| molecule.smiles | reported.relation | solubility [µg/mL] |
| --- | --- | --- |
| CO[C@H]1/C=C/O[C@@]2(C)Oc3c(C)c(O)c4c(O)c(c(/C=N/NCc5ccccc5)c(O)c4c3C2=O)NC(=O)/C(C)=C\C=C\[C@H](C)[C@H](O)[C@@H](C)[C@@H](O)[C@@H](C)[C@H](OC(C)=O)[C@@H]1C | < | 50 |
| CO[C@H]1/C=C/O[C@@]2(C)Oc3c(C)c(O)c4c(O)c(c(/C=N/NC5CCCCC5)c(O)c4c3C2=O)NC(=O)/C(C)=C\C=C\[C@H](C)[C@H](O)[C@@H](C)[C@@H](O)[C@@H](C)[C@H](OC(C)=O)[C@@H]1C | < | 50 |
| CO[C@H]1/C=C/O[C@@]2(C)Oc3c(C)c(O)c4c(O)c(c(CN5CCN(C)C6(CCN(C)CC6)C5)c(O)c4c3C2=O)NC(=O)/C(C)=C\C=C\[C@H](C)[C@H](O)[C@@H](C)[C@@H](O)[C@@H](C)[C@H](OC(C)=O)[C@@H]1C | = | 1830 |
| CO[C@H]1/C=C/O[C@@]2(C)Oc3c(C)c(O)c4c(O)c(c(CN5CCC(N6CCC(C(=O)O)CC6)CC5)c(O)c4c3C2=O)NC(=O)/C(C)=C\C=C\[C@H](C)[C@H](O)[C@@H](C)[C@@H](O)[C@@H](C)[C@H](OC(C)=O)[C@@H]1C | = | 70000 |

---

assay: Lipophilicity, log P of the compound in octanol and water incubated for 1 h under shaking condition; assay type: physicochemical
Hi, to clarify the labels: Yes covers logP at 1 h from 3 upward, No covers anything below 3.

| molecule.smiles | group |
| --- | --- |
| CO[C@H]1/C=C/O[C@@]2(C)Oc3c(C)c(O)c4c(O)c(c(CNC5CCN(C(=O)OC(C)(C)C)CC5)c(O)c4c3C2=O)NC(=O)/C(C)=C\C=C\[C@H](C)[C@H](O)[C@@H](C)[C@@H](O)[C@@H](C)[C@H](OC(C)=O)[C@@H]1C | No |
| CO[C@H]1/C=C/O[C@@]2(C)Oc3c(C)c(O)c4c(O)c(c(/C=N/Nc5ccccc5)c(O)c4c3C2=O)NC(=O)/C(C)=C\C=C\[C@H](C)[C@H](O)[C@@H](C)[C@@H](O)[C@@H](C)[C@H](OC(C)=O)[C@@H]1C | No |
| CO[C@H]1/C=C/O[C@@]2(C)Oc3c(C)c(O)c4c(O)c(c(/C=N/N5CCCCCC5)c(O)c4c3C2=O)NC(=O)/C(C)=C\C=C\[C@H](C)[C@H](O)[C@@H](C)[C@@H](O)[C@@H](C)[C@H](OC(C)=O)[C@@H]1C | Yes |
| CO[C@H]1/C=C/O[C@@]2(C)Oc3c(C)c(O)c4c(O)c(c(CN5CCC(NS(C)(=O)=O)CC5)c(O)c4c3C2=O)NC(=O)/C(C)=C\C=C\[C@H](C)[C@H](O)[C@@H](C)[C@@H](O)[C@@H](C)[C@H](OC(C)=O)[C@@H]1C | No |
| CO[C@H]1/C=C/O[C@@]2(C)Oc3c(C)c(O)c4c(O)c(c(CN5CCC(N6CCC(C(=O)O)CC6)CC5)c(O)c4c3C2=O)NC(=O)/C(C)=C\C=C\[C@H](C)[C@H](O)[C@@H](C)[C@@H](O)[C@@H](C)[C@H](OC(C)=O)[C@@H]1C | No |
| CO[C@H]1/C=C/O[C@@]2(C)Oc3c(C)c(O)c4c(O)c(c(CN5CCN(Cc6ccc(F)cc6)CC5)c(O)c4c3C2=O)NC(=O)/C(C)=C\C=C\[C@H](C)[C@H](O)[C@@H](C)[C@@H](O)[C@@H](C)[C@H](OC(C)=O)[C@@H]1C | Yes |
| CO[C@H]1/C=C/O[C@@]2(C)Oc3c(C)c(O)c4c(O)c(c(CN5CCN(Cc6c(C)cc(C)cc6C)CC5)c(O)c4c3C2=O)NC(=O)/C(C)=C\C=C\[C@H](C)[C@H](O)[C@@H](C)[C@@H](O)[C@@H](C)[C@H](OC(C)=O)[C@@H]1C | No |
| CO[C@H]1/C=C/O[C@@]2(C)Oc3c(C)c(O)c4c(O)c(c(CNC5CCN(CC6CCCCC6)CC5)c(O)c4c3C2=O)NC(=O)/C(C)=C\C=C\[C@H](C)[C@H](O)[C@@H](C)[C@@H](O)[C@@H](C)[C@H](OC(C)=O)[C@@H]1C | Yes |

---

test system: Staphylococcus aureus; assay: Antimicrobial activity against MLSB-resistant Staphylococcus aureus incubated for 18 hrs by serial microdilution method; format: functional
Recorded log10 of MIC by entry
measurement.label: log10 of MIC (log10 of the value in µg/mL)

| compound | subject.of.test | reading |
| --- | --- | --- |
| CO[C@H]1/C=C/O[C@@]2(C)Oc3c(C)c(O)c4c(O)c(c(CN5CCN(C)CC5)c(O)c4c3C2=O)NC(=O)/C(C)=C\C=C\[C@H](C)[C@H](O)[C@@H](C)[C@@H](O)[C@@H](C)[C@H](OC(C)=O)[C@@H]1C | Staphylococcus aureus | 0.00 |
| CO[C@H]1/C=C/O[C@@]2(C)Oc3c(C)c(O)c4c(O)c(c(C=O)c(O)c4c3C2=O)NC(=O)/C(C)=C\C=C\[C@H](C)[C@H](O)[C@@H](C)[C@@H](O)[C@@H](C)[C@H](OC(C)=O)[C@@H]1C | Staphylococcus aureus | 0.30 |
| CO[C@H]1/C=C/O[C@@]2(C)Oc3c(C)c(O)c4c(O)c(c(/C=N/Nc5ccnc6cc(Cl)ccc56)c(O)c4c3C2=O)NC(=O)/C(C)=C\C=C\[C@H](C)[C@H](O)[C@@H](C)[C@@H](O)[C@@H](C)[C@H](OC(C)=O)[C@@H]1C | Staphylococcus aureus | -0.90 |
| CO[C@H]1/C=C/O[C@@]2(C)Oc3c(C)c(O)c4c(O)c(c(CNC5CCCC(C(N)=O)C5)c(O)c4c3C2=O)NC(=O)/C(C)=C\C=C\[C@H](C)[C@H](O)[C@@H](C)[C@@H](O)[C@@H](C)[C@H](OC(C)=O)[C@@H]1C (some centres undefined) | Staphylococcus aureus | -0.60 |
| CO[C@H]1/C=C/O[C@@]2(C)Oc3c(C)c(O)c4c(O)c(c(/C=N/N5CCCCCC5)c(O)c4c3C2=O)NC(=O)/C(C)=C\C=C\[C@H](C)[C@H](O)[C@@H](C)[C@@H](O)[C@@H](C)[C@H](OC(C)=O)[C@@H]1C | Staphylococcus aureus | -0.30 |
| CO[C@H]1/C=C/O[C@@]2(C)Oc3c(C)c(O)c4c(O)c(c(/C=N/N5CCN(C)CC5)c(O)c4c3C2=O)NC(=O)/C(C)=C\C=C\[C@H](C)[C@H](O)[C@@H](C)[C@@H](O)[C@@H](C)[C@H](OC(C)=O)[C@@H]1C | Staphylococcus aureus | -1.51 |
| CO[C@H]1/C=C/O[C@@]2(C)Oc3c(C)c(O)c4c(O)c(c(CNC5CCN(CC6CCCCC6)CC5)c(O)c4c3C2=O)NC(=O)/C(C)=C\C=C\[C@H](C)[C@H](O)[C@@H](C)[C@@H](O)[C@@H](C)[C@H](OC(C)=O)[C@@H]1C | Staphylococcus aureus | -0.90 |
| CO[C@H]1/C=C/O[C@@]2(C)Oc3c(C)c(O)c4c(O)c(c(/C=N/N5CCCCC5)c(O)c4c3C2=O)NC(=O)/C(C)=C\C=C\[C@H](C)[C@H](O)[C@@H](C)[C@@H](O)[C@@H](C)[C@H](OC(C)=O)[C@@H]1C | Staphylococcus aureus | -0.30 |
| CO[C@H]1/C=C/O[C@@]2(C)Oc3c(C)c(O)c4c(O)c(c(CN5CCC6(CC5)NCCc5ccccc56)c(O)c4c3C2=O)NC(=O)/C(C)=C\C=C\[C@H](C)[C@H](O)[C@@H](C)[C@@H](O)[C@@H](C)[C@H](OC(C)=O)[C@@H]1C | Staphylococcus aureus | 0.90 |
